# system_tested: B.1.1.7 Spike (SARS-CoV2)
measured_property: Response
Reply briefly: the number, and no unit.

Any idea what Response was measured for Ab_20 scFv-Fc (scFv, V domains shown) VH: QVQLVQSGGGSVKPGGSLRLSCAASGYRLSDYYMHWVRQAPGKGLEWVANIKQDGSEKYYVDSVKGRFTISRDNAKNSLYLQMNSLRAEDTAVYYCARVRGWSRGYFDYWGQGTLVTVSS VL: NFMLTQPHSVSESPGKTVTISCTGSSGSIASNYVQWYQQRPGSAPTTVIYEDNQRPSGVPDRFSGSIDSSSNSASLLISGLKTEDEADYYCQSYDSSNHWVFGGGTKLTVL ? 0.173

Entry S1-RBD-R3-T1-F5 (Ab2-7) scFv-Fc (scFv, V domains shown) VH: QVTLKESGPTRVKPTQTLTLTCTFSGFSLSTTGVGVGWIRQPPGKALEWLALIYWNDDKRYSPSLKSRLTITKDTSKNQVVLTMTNMDPVDTATYYCARISGSGYFYPFDIWGQGTTVTVSS VL: NFMLTQPHSVSESPGKTVTISCTRSSGSIASNYVQWYQQRPGSSPTTVIYEDNQRPSGVPDRFSGSIDSSSNSASLTISGLKAEDEADYYCQSYDSSSLWVFGGGTKLTVL : reported Response = ? 0.127

Could you tell me which Response is on file for Ab_21 scFv-Fc (scFv, V domains shown) VH: QVQLVQSGGGLVQPGGSLRLSCATSGFTFDDYAMHWVRQAPGKGLEWVSGISWNSGSIGYVDSVKGRFTISRDNRNNKVYLQMNNLRAEDTAVYYCARDWWGSIDHWGLGTLVTVSS VL: QSALTQPRSVSGSPGQSVTISCTGTSSDVGGYDYVSWYQQHPGKAPKLIIYDVSKRPSGVPDRFSGSKSGNTASLTVSGLQAEDEADYYCSSYTSSSPVVFGGGTKLTVL ? 0.199

Entry Ab_19 scFv-Fc (scFv, V domains shown) VH: EVQLVESGAEVKKPGESLKISCKGSGYSFTSYWIGWVRQMPGKGLEWMGIIYPGDSDTRYSPSFQGQVTISADKSISTAYLQWSSLKASDTAMYYCARRGDLDAFDIWGQGTMVTVSS VL: QPGLTQPPAASGTPGQRVTVSCSGASANIGSNAVSWFKQFPETAPRLLISGNTHRPSGVPDRVSGSKSGTSASLTISGLQSDDEADYYCAAWDDSLNGYVFGSGTKVTVL has what Response? 0.203

Return reported Response; argument: Ab_27 scFv-Fc (scFv, V domains shown) VH: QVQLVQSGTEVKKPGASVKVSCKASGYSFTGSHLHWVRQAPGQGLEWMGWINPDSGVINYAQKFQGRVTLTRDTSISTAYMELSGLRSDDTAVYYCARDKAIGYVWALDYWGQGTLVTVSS VL: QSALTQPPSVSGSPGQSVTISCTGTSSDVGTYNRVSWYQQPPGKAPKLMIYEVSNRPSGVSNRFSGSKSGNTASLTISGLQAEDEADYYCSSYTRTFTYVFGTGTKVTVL 0.281

I'd like to know its Response. The binder in question is Ab_25 scFv-Fc (scFv, V domains shown) VH: QVQLVQSGGGLVQPGGSLRLSCAASGFTFSSYWMSWVRQAPGKGLEWVANIKQDGSEKYYVDSVKGRFTISRDNAKNSLYLQMNSLRAEDTAVYYCARGFYYYGAFDIWGQGTTVTVSS VL: NFMLTQPHSVSESPGKTVTISCTGSSGSIASNYVQWYQQRPGSAPTTVIYEDNQRPSGVPDRFSGSIGSSSNSASLTISGLKTEDEADYYCQSYDSSNHWVFGGGTKLTVL 0.0668

Bench note: what Response did Ab_17 scFv-Fc (scFv, V domains shown) VH: QVQLVQSGGGVVQPGRSLRLSCAASGFTFDDYAMHWVRQVPGKGLEWVSGIDWNSGVIGYADSVKGRFTISRDNVKNSLYLQMNSLRTEDSALYYCAKDIGPGGSGSYYAFDIWGQGTTVTVSS VL: QSALTQPASVSGSPGQSITISCTGTSSDVGGSKYVSWYQQHPGKAPKVMIYDVTKRPSGVPDRFSGSKSGNTASLTISGLQAEDEADYYCAAWDDSLNGVVFGGGTKLTVL show? 0.331

Please look up its Response: Ab_23 scFv-Fc (scFv, V domains shown) VH: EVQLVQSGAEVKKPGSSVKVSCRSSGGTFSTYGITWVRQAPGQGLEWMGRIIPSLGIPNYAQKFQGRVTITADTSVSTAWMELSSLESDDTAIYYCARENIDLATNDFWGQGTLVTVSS VL: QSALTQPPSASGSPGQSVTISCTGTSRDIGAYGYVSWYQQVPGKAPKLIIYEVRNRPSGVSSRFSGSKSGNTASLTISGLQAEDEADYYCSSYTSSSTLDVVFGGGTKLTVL 0.135

Response lookup needed for Ab_28 scFv-Fc (scFv, V domains shown) VH: QVTLKESGPGLVNPSETLSLTCTVSGASISNSFWSWIRQSPGKGLEWIGYTSYSGNSIYNPSLKSRLTMSIDTSKNQLSLNLRSLTAADTAVYYCARREWIKGHFDYWGQGTLVTVSS VL: NFMLTQPHSVSESPGKTVTISCTGSGGSIASNYVQWYQQRPGSAPTTVIYEDNQRPSGVPDRFSGSIDSSSNSASLTISGLKTEDEADYYCQSYDSSNPVVFGGGTKLTVL , thanks. 0.206

Suppose we examine the binder Ab_13 scFv-Fc (scFv, V domains shown) VH: QVTLKESGPKLVKPTQTLTLTCTFSGFSLSTSGVGVGWIRQPPGKALEWLALIYWDDDKRYSPSLKSRLTIAKDTSKYQVVLTMTNMDPVDTATYYCARISGSGYFYPFDIWGQGTMVTVSA VL: NFMLTQPHSVSESPGKTVTISCTRSSGSIASNYVQWYQQRPGSAPTTVIYEDNQRPSGVPDRFSGSIDSSSNSASLTISGLKTEDEADYYCQSYDSSNLWVFGGGTKLTVL ; what Response value has been reported? 0.113
